Where do the numbers come from? From patent US11793849B2.

Documented share of strains with FIC ≤ 0.5 across a set of molecules
system: MDRAB; assay: Checkerboard assay (combined-use MIC, FIC); format: cell-based, Acinetobacter baumannii; conditions: 20 MDRABs; antibiotic with EA (water extract)

In plain terms, CN(C)[C@@H]1C(O)=C(C(N)=O)C(=O)[C@@]2(O)C(O)=C3C(=O)c4c(O)cccc4[C@@](C)(O)[C@H]3C[C@@H]12 has a documented share of strains with FIC ≤ 0.5 of 35%

In plain terms, C[C@@H](O)[C@H]1C(=O)N2C(C(=O)O)=C(SCCN=CN)C[C@H]12 has a documented share of strains with FIC ≤ 0.5 of 35%

In plain terms, C[C@H]1COc2c(N3CCN(C)CC3)c(F)cc3c(=O)c(C(=O)O)cn1c23 has a documented share of strains with FIC ≤ 0.5 of 35%

In plain terms, CC(C)(O/N=C(\C(=O)N[C@@H]1C(=O)N2C(C(=O)[O-])=C(C[n+]3ccccc3)CS[C@H]12)c1csc(N)n1)C(=O)O has a documented share of strains with FIC ≤ 0.5 of 20%

====

test system: MDRPA; test: Checkerboard assay (combined-use MIC, FIC); assay type: cell-based, Pseudomonas aeruginosa; conditions: 20 MDRPAs; antibiotic with 60% ethanol extract
Documented reduction of the antibiotic's MIC90 vs single use across a set of molecules
Unit % implied. Number only.

In plain terms, NCC[C@H](O)C(=O)N[C@@H]1C[C@H](N)[C@@H](O[C@H]2O[C@H](CN)[C@@H](O)[C@H](O)[C@H]2O)[C@H](O)[C@H]1O[C@H]1O[C@H](CO)[C@@H](O)[C@H](N)[C@H]1O has a documented reduction of the antibiotic's MIC90 vs single use of 93.75

In plain terms, CC(C)(O/N=C(\C(=O)N[C@@H]1C(=O)N2C(C(=O)[O-])=C(C[n+]3ccccc3)CS[C@H]12)c1csc(N)n1)C(=O)O has a documented reduction of the antibiotic's MIC90 vs single use of 75

In plain terms, C[C@@H](O)[C@H]1C(=O)N2C(C(=O)O)=C(SCCN=CN)C[C@H]12 has a documented reduction of the antibiotic's MIC90 vs single use of 75

In plain terms, C[C@H]1COc2c(N3CCN(C)CC3)c(F)cc3c(=O)c(C(=O)O)cn1c23 has a documented reduction of the antibiotic's MIC90 vs single use of 75

In plain terms, CCN1CCN(C(=O)N[C@@H](C(=O)N[C@@H]2C(=O)N3C(C(=O)O)=C(CSc4nnnn4C)CS[C@H]23)c2ccc(O)cc2)C(=O)C1=O has a documented reduction of the antibiotic's MIC90 vs single use of 50

====

test system: MDRPA; assay: MIC determination, microdilution broth method; details: single use; 20 MDRPAs; section of the 10% ethanol extract;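 note: broth microdilution per NCCLS recommendations, testing Pithecellobium clypearia water or ethanol extracts against multidrug-resistant Pseudomonas aeruginosa, with MIC50 and MIC90 derived statistically from individual MICs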
Documented MIC50 across a set of molecules
# number then unit; no other words

For C[C@@H](O)[C@H]1C(=O)N2C(C(=O)O)=C(SCCN=CN)C[C@H]12 [IMP, imipenem] on MDRPA, measured MIC50 was 32 µg/mL

For C[C@H]1COc2c(N3CCN(C)CC3)c(F)cc3c(=O)c(C(=O)O)cn1c23 [LVX, Levofloxacin] on MDRPA, measured MIC50 was 4 µg/mL

For CC(C)(O/N=C(\C(=O)N[C@@H]1C(=O)N2C(C(=O)[O-])=C(C[n+]3ccccc3)CS[C@H]12)c1csc(N)n1)C(=O)O [CAZ, Ceftazidime] on MDRPA, measured MIC50 was 32 µg/mL
